All values here come from PubChem BioAssay (EPA / NIEHS).

system_under_test: Cellular tumor antigen p53 (Homo sapiens) (UniProt P04637)
Sequence (P04637 whole entry, looked up): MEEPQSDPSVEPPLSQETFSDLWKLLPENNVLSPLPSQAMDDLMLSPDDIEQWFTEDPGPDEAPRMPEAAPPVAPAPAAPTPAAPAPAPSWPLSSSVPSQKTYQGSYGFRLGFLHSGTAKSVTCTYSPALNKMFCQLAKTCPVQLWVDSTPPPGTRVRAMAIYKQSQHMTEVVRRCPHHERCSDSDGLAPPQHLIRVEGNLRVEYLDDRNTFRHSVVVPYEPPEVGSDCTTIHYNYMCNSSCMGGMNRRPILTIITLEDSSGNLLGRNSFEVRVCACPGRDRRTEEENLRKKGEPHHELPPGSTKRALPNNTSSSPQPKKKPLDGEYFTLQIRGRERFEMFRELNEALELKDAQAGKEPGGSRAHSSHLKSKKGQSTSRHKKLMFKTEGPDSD
protocol_details: TOX21_p53_BLA_p4_ratio: Tox21 HCT-116 p53 Agonism Beta-lactamase Assay, Ratio, Phase 4 (AID 2283601)
Records with an inconclusive call do not appear. Active and inactive are the calls of the source. Rule for the calls: active = hit-call score of the fitted dose curve at least 0.9, where 1 is the maximum; inconclusive = response in the unintended direction; inactive = score below 0.9.
Select the correct class. Options are active, inactive and nothing else.

- CCCCCCCC1CCCC1=O (stereo not drawn): inactive
- C=CCS(=O)(=O)O: inactive
- CC1(C)CC(N)CC(C)(CN)C1 (stereo not drawn): inactive
- CCCCN(CCCC)CCCCCCN(CCCC)CCCC: inactive
- CN(C)C: inactive
- CC(CCO)CC(C)(C)C (stereo not drawn): inactive
- CC(=O)c1ccc2ccccc2c1: inactive
- CCC(C)(CCCC(C)C)OC(C)=O (stereo not drawn): inactive

Exam item: State the result this test recorded for `CCC(C)(C)c1cc(O)c(C(C)(C)CC)cc1O` .
Marked response: inactive

Exam item: State the result this test recorded for `c1ccc(-c2nn[nH]n2)cc1` .
Marked response: inactive

Exam item: State the result this test recorded for `O=S1(=O)CC(Cl)(Cl)C(Cl)(Cl)C1` .
Marked response: active

Exam item: State the result this test recorded for `ClCCOCCOCCCl` .
Marked response: inactive

Exam item: State the result this test recorded for `CC(C)COC(=O)c1ccccc1O` .
Marked response: inactive

Exam item: State the result this test recorded for `COc1ccc(C(C)=O)cc1` .
Marked response: inactive

Exam item: State the result this test recorded for `CCCCOCCOC(=O)c1ccccc1C(=O)OCCOCCCC` .
Marked response: inactive

Exam item: State the result this test recorded for `CC1=CCC(=C(C)C)CC1` .
Marked response: inactive

Exam item: State the result this test recorded for CCCCOC(=O)C(C)OC(=O)CCC (stereo not drawn) .
Marked response: inactive

Exam item: State the result this test recorded for `CN(C)c1ccc(C=O)cc1` .
Marked response: inactive

Exam item: State the result this test recorded for `CC(C)=CCCC(C)=CC(=O)O` .
Marked response: inactive

Exam item: State the result this test recorded for `CC(=O)Nc1cc(S(=O)(=O)O)cc2cc(S(=O)(=O)O)c(N=Nc3ccccc3)c(O)c12` .
Marked response: inactive

Exam item: State the result this test recorded for `CCO[Si](CC)(OCC)OCC` .
Marked response: inactive

Exam item: State the result this test recorded for `Nc1ccc(O)c(N)c1` .
Marked response: inactive

Exam item: State the result this test recorded for `CCCCCCCCCOS(=O)(=O)O` .
Marked response: inactive

Exam item: State the result this test recorded for `CC(C)N1C(=O)c2ccccc2C1=O` .
Marked response: inactive

Exam item: State the result this test recorded for CCC(C)COC(=O)CC(C)C (stereo not drawn) .
Marked response: inactive

Exam item: State the result this test recorded for `Cc1ccc(C(C)(C)O)cc1` .
Marked response: inactive
